The values you see were collected from patent US20190352423A1.

Molecular target: T1, recombinant human CD63 second extracellular domain (Ala 103-Val 203) fused with a polyhistidine tag at the … (human, UniProt P08962 103-203)
T1 construct: range 103-203; Bought from Creative BioMart; also called human His-tagged CD63; soluble CD63
T1 sequence (looked up): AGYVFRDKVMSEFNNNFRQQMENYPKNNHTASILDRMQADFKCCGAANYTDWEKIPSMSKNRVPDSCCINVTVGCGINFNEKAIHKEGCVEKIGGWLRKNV
Experiment: BLI (Octet HTX), IgG on anti-human Fc sensors, His-tagged CD63 as analyte, 30 C
Property measured: kon (M⁻¹ s⁻¹)
The answer is to be given in M⁻¹ s⁻¹; state only the numeric part.

Previously resolved entries follow.
# Binder, kon (M⁻¹ s⁻¹)
records = [
    ("IgG1-CD63 affinity variant P72H (antibody, V domains shown) VH: EVQLQQSGPELVKPGASVKMSCKASGYTFTSYVMHWVRQTPGQGLEWIGYITHYNDGTKYNEKFKGKATLTSDKSSSTAYMELSSLTSEDSAVYYCVGGDNYYYAMDYWGQGTSVTVSA VL: NIMVTQSPSSLAVSAGEKVTMSCKSSQSVLYSSNQKNYLAWYQQKPGQSPKLLIYWASTRVSGVPDRFTGSGSGTDFTLTISRVQAEDLAVYYCHQYFSSFTFGSGTKLEIKR", 170000),
    ("IgG1-CD63 affinity variant LQ47 (antibody, V domains shown, As m1 with one histidine substitution in the light chain) VH: EVQLQQSGPELVKPGASVKMSCKASGYTFTSYVMHWVRQTPGQGLEWIGYITPYNDGTKYNEKFKGKATLTSDKSSSTAYMELSSLTSEDSAVYYCVGGDNYYYAMDYWGQGTSVTVSA VL: NIMVTQSPSSLAVSAGEKVTMSCKSSHSVLYSSNQKNYLAWYQQKPGQSPKLLIYWASTRVSGVPDRFTGSGSGTDFTLTISRVQAEDLAVYYCHQYFSSFTFGSGTKLEIKR", 180000),
    ("wild type IgG1-CD63 (antibody, V domains shown, Mouse 2192 variable domains on human IgG1 constant domains (heavy chain with K409R or F405L) and a human light chain constant domain; also called wt IgG1-CD63; WT) VH: EVQLQQSGPELVKPGASVKMSCKASGYTFTSYVMHWVRQTPGQGLEWIGYITPYNDGTKYNEKFKGKATLTSDKSSSTAYMELSSLTSEDSAVYYCVGGDNYYYAMDYWGQGTSVTVSA VL: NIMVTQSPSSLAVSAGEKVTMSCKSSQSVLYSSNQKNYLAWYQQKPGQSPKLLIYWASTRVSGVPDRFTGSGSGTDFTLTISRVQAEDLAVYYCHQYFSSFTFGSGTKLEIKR", 200000),
]

**Query** Request the reported kon associated with anti-CD63-LN54H (antibody, V domains shown) VH: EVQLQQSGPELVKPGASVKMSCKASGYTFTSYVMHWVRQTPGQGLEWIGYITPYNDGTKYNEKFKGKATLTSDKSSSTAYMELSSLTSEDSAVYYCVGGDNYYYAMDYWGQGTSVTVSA VL: NIMVTQSPSSLAVSAGEKVTMSCKSSQSVLYSSHQKNYLAWYQQKPGQSPKLLIYWASTRVSGVPDRFTGSGSGTDFTLTISRVQAEDLAVYYCHQYFSSFTFGSGTKLEIKR
**Result** 190000

**Query** Request the reported kon associated with IgG1-CD63N74H (antibody, V domains shown, also called anti-CD63-N74H) VH: EVQLQQSGPELVKPGASVKMSCKASGYTFTSYVMHWVRQTPGQGLEWIGYITPYHDGTKYNEKFKGKATLTSDKSSSTAYMELSSLTSEDSAVYYCVGGDNYYYAMDYWGQGTSVTVSA VL: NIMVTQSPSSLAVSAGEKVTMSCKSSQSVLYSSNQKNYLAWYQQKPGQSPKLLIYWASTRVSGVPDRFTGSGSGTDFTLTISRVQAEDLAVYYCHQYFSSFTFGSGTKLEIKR
**Result** 170000
